Listed below: total protein half-life in vivo values for each entry.
Assay: total protein half-life in vivo (active degradation + dilution); higher = more stable protein
Conditions: wild type E. coli NCM3722; growth: P-lim chemostat; doubling time 12 h
Measurement Kind: total protein half-life in vivo (h)

MMEQSLIPQTPVLPLTAQRTVKRALTLLDRHLRETGVAFTSTQAARDWLKLKMAGLEREEFMMLYLNQQNQLIAHETLFAGSISSTEVHPREVVKRALYFNAAAVILAHNHPSGDTTPSQADKTITQRLVQALQLVDIRVPDHLIVGGRQIYSFAEHGLL
10.4
MNALTAVQNNAVDSGQDYSGFTLTPSAQSPRLLELTFTEQTTKQFLEQVAEWPVQALEYKSFLRFRVAKILDDLCANQLQPLLLKTLLNRAEGALLINAVGVDDVKQADEMVKLATAVAHLIGRSNFDAMSGQYYARFVVKNVDNSDSYLRQPHRVMELHNDGTYVEEITDYVLMMKIDEQNMQGGNSLLLHLDDWEHLDNYFRHPLARRPMRFAAPPSKNVSKDVFHPVFDVDQQGRPVMRYIDQFVQPKDFEEGVWLSELSDAIETSKGILSVPVPVGKFLLINNLFWLHGRDRFTPHPDLRRELMRQRGYFAYASNHYQTHQ
1.17
MQFNIPTLLTLFRVILIPFFVLVFYLPVTWSPFAAALIFCVAAVTDWFDGFLARRWNQSTRFGAFLDPVADKVLVAIAMVLVTEHYHSWWVTLPAATMIAREIIISALREWMAELGKRSSVAVSWIGKVKTTAQMVALAWLLWRPNIWVEYAGIALFFVAAVLTLWSMLQYLSAARADLLDQ [P0ABF8]
12.1
MKVGFIGLGIMGKPMSKNLLKAGYSLVVADRNPEAIADVIAAGAETASTAKAIAEQCDVIITMLPNSPHVKEVALGENGIIEGAKPGTVLIDMSSIAPLASREISEALKAKGIDMLDAPVSGGEPKAIDGTLSVMVGGDKAIFDKYYDLMKAMAGSVVHTGEIGAGNVTKLANQVIVALNIAAMSEALTLATKAGVNPDLVYQAIRGGLAGSTVLDAKAPMVMDRNFKPGFRIDLHIKDLANALDTSHGVGAQLPLTAAVMEMMQALRADGLGTADHSALACYYEKLAKVEVTR [P0ABQ2]
10.3
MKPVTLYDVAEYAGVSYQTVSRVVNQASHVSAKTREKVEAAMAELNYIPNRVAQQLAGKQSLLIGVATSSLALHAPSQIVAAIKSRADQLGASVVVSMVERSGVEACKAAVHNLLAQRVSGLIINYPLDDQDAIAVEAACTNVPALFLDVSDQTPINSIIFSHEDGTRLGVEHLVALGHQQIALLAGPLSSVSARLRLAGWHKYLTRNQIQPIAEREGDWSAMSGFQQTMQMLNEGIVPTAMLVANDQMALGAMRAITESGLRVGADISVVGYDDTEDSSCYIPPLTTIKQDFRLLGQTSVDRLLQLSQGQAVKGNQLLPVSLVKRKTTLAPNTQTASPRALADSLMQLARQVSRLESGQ
10.5
MFQLSVQDIHPGEKAGDKEEAIRQVAAALVQAGNVAEGYVNGMLAREQQTSTFLGNGIAIPHGTTDTRDQVLKTGVQVFQFPEGVTWGDGQVAYVAIGIAASSDEHLGLLRQLTHVLSDDSVAEQLKSATTAEELRALLMGEKQSEQLKLDNEMLTLDIVASDLLTLQALNAARLKEAGAVDATFVTKAINEQPLNLGQGIWLSDSAEGNLRSAIAVSRAANAFDVDGETAAMLVSVAMNDDQPIAVLKRLADLLLDNKADRLLKADAATLLALLTSDDAPTDDVLSAEFVVRNEHGLHARPGTMLVNTIKQFNSDITVTNLDGTGKPANGRSLMKVVALGVKKGHRLRFTAQGADAEQALKAIGDAIAAGLGEGA
12
